Entries and their IC50 values follow.
- target_system: Human Calpain 9/NS1 (Homo sapiens, UniProt O14815)
- Sequence (O14815 1-690): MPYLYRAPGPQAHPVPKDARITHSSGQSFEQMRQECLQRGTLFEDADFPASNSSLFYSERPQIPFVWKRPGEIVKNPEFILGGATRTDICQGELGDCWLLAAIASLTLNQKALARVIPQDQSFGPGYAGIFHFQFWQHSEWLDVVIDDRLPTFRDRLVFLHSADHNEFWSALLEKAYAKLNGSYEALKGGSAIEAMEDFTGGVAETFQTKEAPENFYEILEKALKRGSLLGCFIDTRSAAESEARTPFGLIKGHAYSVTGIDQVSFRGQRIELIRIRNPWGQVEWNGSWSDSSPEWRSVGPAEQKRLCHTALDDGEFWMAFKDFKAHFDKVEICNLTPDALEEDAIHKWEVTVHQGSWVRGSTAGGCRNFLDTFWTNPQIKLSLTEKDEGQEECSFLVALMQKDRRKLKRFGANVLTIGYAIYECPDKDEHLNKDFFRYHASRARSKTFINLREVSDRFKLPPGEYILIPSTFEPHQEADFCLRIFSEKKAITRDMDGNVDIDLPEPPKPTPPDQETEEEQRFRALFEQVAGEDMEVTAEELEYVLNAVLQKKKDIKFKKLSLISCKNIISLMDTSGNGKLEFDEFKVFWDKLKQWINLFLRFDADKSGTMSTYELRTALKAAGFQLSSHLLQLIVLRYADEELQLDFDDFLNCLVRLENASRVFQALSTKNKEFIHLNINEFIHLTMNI
- Sequence (P04632 1-268 partner): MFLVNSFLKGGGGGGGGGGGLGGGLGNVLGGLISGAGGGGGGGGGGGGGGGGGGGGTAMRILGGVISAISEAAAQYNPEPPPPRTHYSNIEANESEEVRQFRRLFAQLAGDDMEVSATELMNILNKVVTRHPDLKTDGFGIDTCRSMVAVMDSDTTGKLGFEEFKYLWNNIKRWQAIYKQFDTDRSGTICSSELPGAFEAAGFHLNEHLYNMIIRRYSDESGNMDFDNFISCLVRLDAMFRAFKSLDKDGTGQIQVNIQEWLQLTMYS
- procedure_text: Calpain inhibition continuous fluorescence (FRET) assay, Human Calpain 9/NS1
- Format: biochemical
- particulars: Column C; read-out: Human Calpain 9/NS1 IC50

Past entries and their recorded results:
- substance_smiles: "O=C[C@H](Cc1ccccc1)NC(=O)c1cncn1-c1n[nH]c2ccccc12"
  target_system: "Human Calpain 9/NS1 (Homo sapiens, UniProt O14815)"
  IC50: "< 3 µM"
- substance_smiles: "Cn1cc(C(=O)N[C@@H](Cc2ccccc2)C(=O)C(N)=O)c(-c2cccc(F)c2)n1"
  target_system: "Human Calpain 9/NS1 (Homo sapiens, UniProt O14815)"
  IC50: "< 3 µM"
- substance_smiles: "Cc1cc(C(=O)N[C@@H](Cc2ccccc2)C(=O)C(=O)NC2CC2)n(-c2nc(-c3ccccc3)cs2)n1"
  target_system: "Human Calpain 9/NS1 (Homo sapiens, UniProt O14815)"
  IC50: "> 10 µM"
- substance_smiles: "Cc1nc(-c2ccccn2)c(C(=O)N[C@@H](Cc2ccccc2)C(=O)C(N)=O)o1"
  target_system: "Human Calpain 9/NS1 (Homo sapiens, UniProt O14815)"
  IC50: "< 3 µM"
- substance_smiles: "Cn1cnc(C(=O)N[C@@H](Cc2ccccc2)C(=O)C(N)=O)c1-c1ccccc1"
  target_system: "Human Calpain 9/NS1 (Homo sapiens, UniProt O14815)"
  IC50: "< 3 µM"

System Human Calpain 9/NS1 (Homo sapiens, UniProt O14815). Read-out IC50. Item `O=C[C@H](Cc1ccccc1)NC(=O)c1cncn1-c1cc(-c2ncco2)ccn1` . Report value.
3 to 10 µM

State the measured IC50 (Human Calpain 9/NS1 (Homo sapiens, UniProt O14815)) of `NC(=O)C(=O)[C@H](Cc1ccccc1)NC(=O)c1cncn1-c1ncc(-c2ccccc2)s1`
< 3 µM

For Human Calpain 9/NS1 (Homo sapiens, UniProt O14815), give the measured IC50 of the entry `Cc1noc(-c2ccccc2)c1C(=O)N[C@@H](Cc1ccccc1)C(=O)C(=O)NCc1cccc(OC(F)(F)F)c1`
> 10 µM

Under Human Calpain 9/NS1 (Homo sapiens, UniProt O14815): report IC50 of `Cn1ncc(C(=O)N[C@@H](Cc2ccccc2)C(=O)C(N)=O)c1-c1ncccn1` .
< 3 µM

Determine reported IC50 for `NC(=O)C(=O)[C@H](Cc1ccccc1)NC(=O)c1cncn1-c1n[nH]c2ccccc12` ; test system: Human Calpain 9/NS1 (Homo sapiens, UniProt O14815).
< 3 µM

Provide IC50, tested on Human Calpain 9/NS1 (Homo sapiens, UniProt O14815), for `CCCC[C@H](NC(=O)c1c(C)noc1-c1ccccc1)C(=O)C(N)=O` .
< 3 µM

Report value: IC50, system: Human Calpain 9/NS1 (Homo sapiens, UniProt O14815), compound: `Cc1cc(C(=O)N[C@@H](Cc2ccccc2)C(=O)C(=O)NC2CC2)nn1-c1nc(-c2ccccc2)cs1`
> 10 µM

Fill in: IC50 on Human Calpain 9/NS1 (Homo sapiens, UniProt O14815), entry `O=C[C@H](Cc1ccccc1)NC(=O)c1cccc2nc(-c3ccccc3)[nH]c12`
< 3 µM
